Test system: Staphylococcus aureus
Assay: Antibacterial activity against erythromycin-resistant Staphylococcus aureus NRS-70 after 18 hrs by two fold serial dilution method
Type: functional
Settings: NRS-70, 18 h
# MIC listing for each entry below

- chem smiles: "CC(C)c1cc2c(cc1Br)[C@@]1(C)CCC[C@@](C)(C(=O)O)[C@@H]1C/C2=N\\OCCNC(=O)c1cccc(C(F)(F)F)c1"
  tested on: "Staphylococcus aureus"
  MIC: "2.5 to 4.01 µM"
- chem smiles: "CC(C)c1cc2c(cc1Br)[C@@]1(C)CCC[C@@](C)(C(=O)O)[C@@H]1C/C2=N\\OCCCNC(=O)c1cccc(C(F)(F)F)c1"
  tested on: "Staphylococcus aureus"
  MIC: "4.91 µM"
- chem smiles: "CC(C)c1cc2c(cc1Br)[C@@]1(C)CCC[C@@](C)(C(=O)O)[C@@H]1C/C2=N\\OCCCNC(=O)c1ccc(Cl)s1"
  tested on: "Staphylococcus aureus"
  MIC: "2.56 to 4.1 µM"
- chem smiles: "CC(C)c1cc2c(cc1Br)[C@@]1(C)CCC[C@@](C)(C(=O)O)[C@@H]1C/C2=N\\OCCNC(=O)c1ccc(Br)s1"
  tested on: "Staphylococcus aureus"
  MIC: "2.44 to 3.9 µM"
- chem smiles: "CC(C)c1cc2c(cc1Br)[C@@]1(C)CCC[C@@](C)(C(=O)O)[C@@H]1C/C2=N\\OCCNC(=O)c1ccc(Cl)s1"
  tested on: "Staphylococcus aureus"
  MIC: "2.62 to 4.19 µM"
- chem smiles: "CC(C)c1cc2c(cc1Br)[C@@]1(C)CCC[C@@](C)(C(=O)O)[C@@H]1C/C2=N\\OCCCNC(=O)Cc1cccc(C(F)(F)F)c1"
  tested on: "Staphylococcus aureus"
  MIC: "1.92 to 2.39 µM"
- chem smiles: "CC(C)c1cc2c(cc1Br)[C@@]1(C)CCC[C@@](C)(C(=O)O)[C@@H]1C/C2=N\\OCCCNC(=O)c1cc(Br)cs1"
  tested on: "Staphylococcus aureus"
  MIC: "1.91 to 2.38 µM"
